Ref: PubChem BioAssay AID1963979

# Tested on: 361931-004-R-J1-PDC multicell spheroid viability;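 further: spheroids exposed to agents for seven days before readout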
# PROTOCOL TEXT: Anticancer human tumor 361931-004-R-J1-PDC patient-derived colon adenocarcinoma cell line growth inhibition [PI3K]
# MEASUREMENT SETUP: second compound 0.0316 µM; first compound 1 µM; active compounds read low
Response field class: string, computed from recorded viability, T/C by ranges lower band: < 70%; central band: ≥ 70% and < 90%; upper band: ≥ 90%

Field: example entries. Status: answers known.
COMPOUND | GROUP
Cn1nccc1Nc1nccc(-c2ccn(C(CO)c3ccc(Cl)c(F)c3)c(=O)c2)n1 (stereo unspecified) + CC(Nc1ncnc2nc[nH]c12)c1cc2cccc(Cl)c2c(=O)n1-c1ccccc1 | upper band
CCCS(=O)(=O)Nc1ccc(F)c(C(=O)c2c[nH]c3ncc(-c4ccc(Cl)cc4)cc23)c1F + COc1c(OCCCN2CCOCC2)ccc2c3n(c(=NC(=O)c4cnc(N)nc4)nc12)CCN3 | central band
CC1(C)CCC(Nc2ncc(C(F)(F)F)c(-c3c[nH]c4c(P(C)(C)=O)c(C#N)ccc34)n2)CN1 (stereo unspecified) + COc1c(OCCCN2CCOCC2)ccc2c3n(c(=NC(=O)c4cnc(N)nc4)nc12)CCN3 | lower band
CC1(C)CCC(CN2CCN(c3ccc(C(=O)NS(=O)(=O)c4ccc(NCC5CCOCC5)c([N+](=O)[O-])c4)c(Oc4cnc5[nH]ccc5c4)c3)CC2)=C(c2ccc(Cl)cc2)C1 + Cc1nc(NC(=O)N2CCCC2C(N)=O)sc1-c1ccnc(C(C)(C)C(F)(F)F)c1 | upper band
CC1(C)CCC(CN2CCN(c3ccc(C(=O)NS(=O)(=O)c4ccc(NCC5CCOCC5)c([N+](=O)[O-])c4)c(Oc4cnc5[nH]ccc5c4)c3)CC2)=C(c2ccc(Cl)cc2)C1 + CC(Nc1ccc2c(c1)OCCn1cc(N3C(=O)OCC3C(F)F)nc1-2)C(N)=O | upper band
C#Cc1c(F)ccc2cc(O)cc(-c3ncc4c(N5CC6CCC(C5)N6)nc(OCC56CCCN5CC(F)C6)nc4c3F)c12 (stereo unspecified) + COc1c(OCCCN2CCOCC2)ccc2c3n(c(=NC(=O)c4cnc(N)nc4)nc12)CCN3 | central band

Hey, which category is CC1(C)CCC(Nc2ncc(C(F)(F)F)c(-c3c[nH]c4c(P(C)(C)=O)c(C#N)ccc34)n2)CN1 (stereo unspecified) + CC(Nc1ccc2c(c1)OCCn1cc(N3C(=O)OCC3C(F)F)nc1-2)C(N)=O in, do you know?
lower band

Kindly state the category for this compound: Cn1ncc(Cl)c1-c1cc(C(=O)NC(CN)Cc2cccc(F)c2)sc1Cl (stereo unspecified) + CC(Nc1ccc2c(c1)OCCn1cc(N3C(=O)OCC3C(F)F)nc1-2)C(N)=O
lower band

Dear colleague, I would appreciate it if you could identify the bin for CCN1CCN(Cc2ccc(Nc3ncc(F)c(-c4cc(F)c5nc(C)n(C(C)C)c5c4)n3)nc2)CC1 + Cc1nc(NC(=O)N2CCCC2C(N)=O)sc1-c1ccnc(C(C)(C)C(F)(F)F)c1 and reply at your convenience.
central band

Category of C=CC(=O)N1CCN(c2nc(=O)n(-c3c(C)ccnc3C(C)C)c3nc(-c4c(O)cccc4F)c(F)cc23)C(C)C1 (stereo unspecified) + CC(Nc1ccc2c(c1)OCCn1cc(N3C(=O)OCC3C(F)F)nc1-2)C(N)=O , please.
upper band

Lab log: CC(C)NCC(C(=O)N1CCN(c2ncnc3c2C(C)CC3O)CC1)c1ccc(Cl)cc1 (stereo unspecified) + CC(Nc1ncnc2nc[nH]c12)c1cc2cccc(Cl)c2c(=O)n1-c1ccccc1 — assign viability, T/C category
central band

Which class does Cn1ncc(Cl)c1-c1cc(C(=O)NC(CN)Cc2cccc(F)c2)sc1Cl (stereo unspecified) + Cc1nc(NC(=O)N2CCCC2C(N)=O)sc1-c1ccnc(C(C)(C)C(F)(F)F)c1 fall in?
lower band

State the class of the compound shown: C[C@@H](NC(=O)c1ncnc(N)c1Cl)c1ncc(C(=O)Nc2cc(C(F)(F)F)c(Cl)cn2)s1 + CC(Nc1ncnc2nc[nH]c12)c1cc2cccc(Cl)c2c(=O)n1-c1ccccc1
upper band

# bin label for C#Cc1c(F)ccc2cc(O)cc(-c3ncc4c(N5CC6CCC(C5)N6)nc(OCC56CCCN5CC(F)C6)nc4c3F)c12 (stereo unspecified) + Cc1nc(NC(=O)N2CCCC2C(N)=O)sc1-c1ccnc(C(C)(C)C(F)(F)F)c1
central band

Given C=CC(=O)N1CCN(c2nc(=O)n(-c3c(C)ccnc3C(C)C)c3nc(-c4c(O)cccc4F)c(F)cc23)C(C)C1 (stereo unspecified) + Cc1nc(NC(=O)N2CCCC2C(N)=O)sc1-c1ccnc(C(C)(C)C(F)(F)F)c1 , name the class its viability, T/C places it in.
upper band

Band for CCCS(=O)(=O)Nc1ccc(F)c(C(=O)c2c[nH]c3ncc(-c4ccc(Cl)cc4)cc23)c1F + CC(Nc1ncnc2nc[nH]c12)c1cc2cccc(Cl)c2c(=O)n1-c1ccccc1 ?
upper band

Which bin should I file CC(C)NCC(C(=O)N1CCN(c2ncnc3c2C(C)CC3O)CC1)c1ccc(Cl)cc1 (stereo unspecified) + CC(Nc1ccc2c(c1)OCCn1cc(N3C(=O)OCC3C(F)F)nc1-2)C(N)=O under?
lower band

Classify this compound: Cn1nccc1Nc1nccc(-c2ccn(C(CO)c3ccc(Cl)c(F)c3)c(=O)c2)n1 (stereo unspecified) + CC(Nc1ccc2c(c1)OCCn1cc(N3C(=O)OCC3C(F)F)nc1-2)C(N)=O
central band
